- System: TYK2 (Homo sapiens)
- Assay: TYK2 degradation MSD assay in human PBMC cells
- Format: cell-based
- Design: endogenous in cells; host or cells: human PBMC
- Study conditions: 4 to 24 hours incubation, read-out: TYK2 MSD DC50 rating in human PBMC
Metric: DC50

Below, 5 compounds whose answers are already recorded.
[
  {
    "Compound": "CNc1cc(Nc2cccn(-c3ccc(C(=O)N4CC5(CCN(c6cccc7c6n(C)c(=O)n7C6CCC(=O)NC6=O)CC5)C4)cn3)c2=O)nn2c(C(=O)N[C@@H]3C[C@@H]3F)cnc12 (some centres unmarked)",
    "Meas value": "< 0.001 µM"
  },
  {
    "Compound": "CNc1cc(-c2cnn(C3CCC(CN4CC5(CCN(c6cccc7c6n(C)c(=O)n7C6CCC(=O)NC6=O)CC5)C4)CC3)c2)nn2c(C(=O)NC3C[C@@H]3F)cnc12 (some centres unmarked)",
    "Meas value": "< 0.001 µM"
  },
  {
    "Compound": "Cn1c(=O)n(C2CCC(=O)NC2=O)c2ccc(CCCCCCNc3cc(Nc4cccn(-c5ccccn5)c4=O)nn4c(C(=O)N[C@@H]5C[C@@H]5F)cnc34)cc21 (some centres unmarked)",
    "Meas value": "> 0.1 µM"
  },
  {
    "Compound": "CNc1cc(Nc2cnn(CC3CCN(CC4CCN(c5ccc6c(c5)n(C)c(=O)n6C5CCC(=O)NC5=O)CC4)CC3)c2)nn2c(C(=O)N[C@@H]3C[C@@H]3F)cnc12 (mixture of isomers)",
    "Meas value": "> 0.1 µM"
  },
  {
    "Compound": "CNc1cc(Nc2cccn(-c3ccc(C(=O)N(C)C4CCC(N5CCN(c6ccc7c(c6)n(C)c(=O)n7C6CCC(=O)NC6=O)CC5)CC4)cn3)c2=O)nn2c(C(=O)N[C@@H]3C[C@@H]3F)cnc12 (some centres unmarked)",
    "Meas value": "> 0.1 µM"
  }
]

Inquiry: Need DC50, item Cn1c(=O)n(C2CCC(=O)NC2=O)c2cccc(CCOCCOCCOCCOCCNc3cc(Nc4cccn(-c5ccccn5)c4=O)nn4c(C(=O)N[C@@H]5C[C@@H]5F)cnc34)c21 (some centres unmarked)
Reply text: > 0.1 µM

Inquiry: Next: CNc1cc(Nc2cccc(CN3CCN(c4cccc5c4n(C)c(=O)n5C4CCC(=O)NC4=O)CC3)c2)nn2c(C(=O)NC3CC3)cnc12 (centres unmarked)
Reply text: > 0.1 µM

Inquiry: Next: CNc1cc(Nc2cccn(-c3ccc(C(=O)N(C)CC4CCN(Cc5cccc6c5n(C)c(=O)n6C5CCC(=O)NC5=O)CC4)cn3)c2=O)nn2c(C(=O)N[C@@H]3C[C@@H]3F)cnc12 (some centres unmarked)
Reply text: < 0.001 µM

* * *

- System: TYK2 (Homo sapiens, UniProt P29597)
- Sequence (P29597 whole entry): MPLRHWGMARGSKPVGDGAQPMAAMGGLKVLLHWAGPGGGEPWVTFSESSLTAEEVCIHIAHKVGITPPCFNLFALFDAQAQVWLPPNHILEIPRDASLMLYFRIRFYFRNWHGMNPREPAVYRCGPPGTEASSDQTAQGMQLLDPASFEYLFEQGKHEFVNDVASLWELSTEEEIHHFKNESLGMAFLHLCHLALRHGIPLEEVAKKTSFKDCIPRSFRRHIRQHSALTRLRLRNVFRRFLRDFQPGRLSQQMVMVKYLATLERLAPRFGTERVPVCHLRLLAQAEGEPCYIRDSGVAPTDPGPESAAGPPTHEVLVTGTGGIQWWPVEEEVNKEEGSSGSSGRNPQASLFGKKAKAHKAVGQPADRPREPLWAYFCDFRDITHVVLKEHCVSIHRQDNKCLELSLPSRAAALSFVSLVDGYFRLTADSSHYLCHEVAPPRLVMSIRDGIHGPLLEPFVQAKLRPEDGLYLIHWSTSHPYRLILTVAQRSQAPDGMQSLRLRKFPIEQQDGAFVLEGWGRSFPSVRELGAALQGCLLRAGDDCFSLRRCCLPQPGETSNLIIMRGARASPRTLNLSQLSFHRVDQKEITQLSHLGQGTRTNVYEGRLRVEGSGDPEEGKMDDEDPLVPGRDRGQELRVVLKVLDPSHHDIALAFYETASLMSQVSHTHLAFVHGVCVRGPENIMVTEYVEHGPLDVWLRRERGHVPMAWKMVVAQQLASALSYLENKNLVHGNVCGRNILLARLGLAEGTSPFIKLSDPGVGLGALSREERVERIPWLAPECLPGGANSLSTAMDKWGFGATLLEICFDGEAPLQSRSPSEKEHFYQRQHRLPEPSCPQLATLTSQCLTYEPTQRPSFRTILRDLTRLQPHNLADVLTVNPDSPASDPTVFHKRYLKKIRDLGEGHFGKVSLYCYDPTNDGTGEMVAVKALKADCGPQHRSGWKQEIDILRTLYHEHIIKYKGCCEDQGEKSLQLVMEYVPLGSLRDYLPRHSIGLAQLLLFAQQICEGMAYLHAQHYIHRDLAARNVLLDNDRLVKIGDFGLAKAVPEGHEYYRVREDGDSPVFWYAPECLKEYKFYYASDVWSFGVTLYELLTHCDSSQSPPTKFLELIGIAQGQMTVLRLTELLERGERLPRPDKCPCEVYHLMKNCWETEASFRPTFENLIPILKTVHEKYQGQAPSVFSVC
- Assay: TYK2 degradation MSD assay in human PBMC cells
- Type: cell-based
- Design: endogenous in cells; host or cells: human PBMC
- Study conditions: 4 to 24 hours incubation, read-out: TYK2 MSD DC50 rating in human PBMC
Metric: DC50

[
  {
    "Molecule": "CNc1cc(Nc2cccn(-c3ccc(C(=O)NC4CCC(C(=O)N5CCC6(CN(CC#Cc7ccc8c(c7)n(C)c(=O)n8C7CCC(=O)NC7=O)C6)C5)CC4)cn3)c2=O)nn2c(C(=O)N[C@@H]3C[C@@H]3F)cnc12 (stereo partly drawn) [Example K384]",
    "Meas value": "> 100 nM"
  },
  {
    "Molecule": "CNc1cc(Nc2cccc(-c3ccc(CN4CCC(N5CC(c6cccc7c6n(C)c(=O)n7C6CCC(=O)NC6=O)C5)CC4)cn3)c2)nn2c(C(=O)N[C@@H]3C[C@@H]3F)cnc12 (stereo partly drawn)",
    "Meas value": "> 100 nM"
  }
]

Now for a further molecule.
Inquiry: Recorded DC50 for CNc1cc(-c2cnn(C3CCN(C(=O)NCCCCc4ccc5c(c4)n(C)c(=O)n5C4CCC(=O)NC4=O)CC3)c2)nn2c(C(=O)N[C@@H]3C[C@@H]3F)cnc12 (stereo partly drawn) with TYK2 (Homo sapiens, UniProt P29597), please?
Reply text: > 100 nM
